Test system: HCT-15 colon
Protocol summary: NCI-60 one-dose screen, 48 h (100 = growth as untreated, 0 = no growth, -100 = all killed)
Condition context: 10 µM
The panel holds about 83,000 compounds, 20% with a hit somewhere; the sample as a whole holds those more often.
Experimental endpoint: growth (%)
Lab book: enter the figure in %, no units written.

Worked cases, answers included:
| Compound | growth, % |
| --- | --- |
| Cc1cc(C)nc(C)c1.[Cl][Hg][Cl] | 101 |
| CC[C@H](C)[C@H](NC(=O)Nc1ccccc1)C(=O)N(C)[C@H](C[C@@H](OC(C)=O)c1nc(C(=O)N[C@@H](Cc2ccccc2)C[C@H](C)C(=O)OC)cs1)C(C)C | 9.43 |
| CC(C)(C)N(Cc1ccccc1)N=O | 103 |
| C=C=[CH][Sn]([c]1ccccc1)([c]1ccccc1)[c]1ccccc1 | -48.6 |
| CC(=O)N1N=C(c2ccccc2)CC1c1sc(N(CCCl)CCCl)nc1Cl (stereo unspecified) | 94.8 |

Query: Determine its reported growth: CCCCCCCCCCCCOc1ccc(C(=O)Oc2ccc(CSP3(=O)OCC4OC(n5cnc6c(N)ncnc65)C(F)C4OP(=O)(O)OCC4OC(n5ccc(=O)[nH]c5=O)C(F)C4O3)cc2)cc1 (stereo unspecified)
Response: 101

Query: Determine its reported growth: O=CN1N=C(c2ccccc2)CC1c1sc(N(CCCl)CCCl)nc1Cl (stereo unspecified)
Response: 92.8

Query: Determine its reported growth: `Cn1cnnc1[S-].[Au+].c1ccc([PH+](c2ccccc2)c2ccccc2)cc1`
Response: -67.4

Query: Determine its reported growth: `NC(=O)SCC(=O)Nc1ccc([As](=O)(O)O)cc1`
Response: 81.5

Query: Determine its reported growth: Cc1ccc(N)cc1[As]=[As]c1cc(N)ccc1C (stereo unspecified)
Response: -68.5

----------
System: HL-60(TB) leukemia
Protocol summary: NCI-60 one-dose screen, 48 h (100 = growth as untreated, 0 = no growth, -100 = all killed)
Condition context: 10 µM unless noted
The panel holds about 83,000 compounds, 20% with a hit somewhere; the sample as a whole holds those more often.
Parameter: growth. Scope: all listed entries.
Lab book: enter the figure in %, no units written.

| Compound | Unit | growth |
| --- | --- | --- |
| CCN(CC)c1ccc(/C=N/NC(=O)Cc2ccc(Nc3ccnc(C(F)(F)F)c3)cc2)c(O)c1 | % | 0.765 |

Query: Determine its reported growth: `FCc1nc2nc(Cl)c(Cl)nc2[nH]1`
Response: 102

Query: Determine its reported growth: CCN1C(=O)N(CC)C2C1NN=c1s/c(=C\c3ccc(OC)cc3)c(=O)n12 (stereo not given)
Response: -45.9

Query: Determine its reported growth: `N#C/C(=C\NC(=S)N=Nc1c(O)[nH]c2ccccc12)c1nc2ccccc2s1`
Response: 103

Query: Determine its reported growth: `Cn1c(-c2ccccc2)cc(=O)cc1-c1ccccc1`
Response: 99.8

Query: Determine its reported growth: `C=C(C)C(=O)Nc1ccc(NC(C)C)cc1`
Response: 129

Query: Determine its reported growth: `COc1cc(Cl)cc(-c2nn(C(=O)NS(=O)(=O)c3ccc(Cl)cc3)cc2-c2ccncc2)c1`
Response: 94.8

Query: Determine its reported growth: `COc1cc(-c2n/c(=C\c3c(O)[nH]c4ccc(Cl)cc34)cc3c2=Nc2ccccc2-3)cc(OC)c1OC`
Response: 48.3

Query: Determine its reported growth: `Cc1nn(-c2ccc(-c3ccc(OC(F)(F)F)cc3)cc2)c2nc(-c3ccccc3)nc(N)c12`
Response: 100

Query: Determine its reported growth: `CCNC(=S)N(Cc1ccccc1)Cc1ccccc1`
Response: 96.2
